# protocol details: basal RPMI8226 viability, no added stimulus, profiling panel, cell-based, calcein-AM fluorescence, 48 h, PK04 Diversity Set (AID 1166);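 further: cells grown under basal conditions without added stimulus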
# reported conditions: RPMI8226 myeloma viability, higher = more signal
param class (str): category from z-score; see ranges lower band (below -2), central band (-2 to below -0.4), upper band (-0.4 or more)

The examples below pair each entry with its known result.
INSERT INTO measurements (molecule, cat) VALUES
  ('Cc1ccc(S[C@]2(C(=O)NCc3ccccc3)CC(=O)N(Cc3ccccc3)[C@@H]2c2ccc(CO)cc2)cc1', 'central band'),
  ('C=CCN1C(=O)[C@]2(O[C@H](CCO)[C@@H]([Si](C)(C)c3ccc(OC)cc3)[C@@H]2C)c2cc(NC(=O)[C@H](C)O)ccc21', 'lower band');

# bin label for CCOC(=O)C1=CC[C@@H](c2ccccc2Cl)N(S(=O)(=O)c2ccc(C)cc2)C1
central band

// return the class label for O=C(CS)NCCCCCCNC(=O)[C@H]1C[C@H]2C(=O)N3CCC[C@H]3C(=O)N2[C@H]1c1cccc(OCCO)c1
upper band

Categorize the following entry: CC=CC(O)C1C=CC2C(=O)N(c3ccccc3)C(=O)C2N1Nc1ccc(C(C)C)cc1 (stereo not given)
central band

---

Task for the reader: assign each of the following compounds its reported composite z-score.
# Test system: Sonic hedgehog protein (Shh)
# protocol details: small-molecule binders of Shh protein, primary screen, biochemical, small-molecule microarray, 635/667 nm fluorescence (AID 1151);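 further: Shh protein binding to compounds spotted on small-molecule microarray slides; score combines spot fluorescence intensity with signal-to-noise across triplicate slides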
# reported conditions: small-molecule microarray binding, 635 nm fluorescence; higher = more signal

Use the examples below as a reference point.
INSERT INTO measurements (compound, obs_value) VALUES
  ('COC(=O)c1ccc(C(O)C2C=CC3C(=O)N(c4ccccc4)C(=O)C3N2Nc2ccc(C#N)cc2)o1 (centres undefined)', -0.0224),
  ('COc1ccc(C(O)C2C=CC3C(=O)N(C)C(=O)C3N2Nc2ccccc2)cc1OCc1ccccc1 (centres undefined)', -0.237),
  ('O=C1O[C@H](c2ccccc2)[C@H](c2ccccc2)N2[C@H]1[C@@H](C(=O)NC[C@H](O)c1ccccc1)[C@]1(C(=O)Nc3ccc(C#CCCO)cc31)[C@H]2c1ccc(O)cc1', -0.606);

Next item in the queue.
Determine its reported composite z-score: COC(=O)[C@@]1(Cc2ccccc2)[C@H]2c3cc(C(=O)N4CCCC4)n(Cc4ccc(C)o4)c3C[C@H]2CN1C(=O)c1ccccc1
-0.21

---

# protocol details: adipocyte viability effects, profiling panel, cell-based, 3T3-L1 adipocytes, calcein-AM fluorescence, 48 h, basal (AID 1163)
# reported conditions: 3T3-L1 adipocytes viability, higher = more signal
Please map values of z-score to classes as shown: low bin = under -0.5, mid bin = from -0.5 up to 0.3, high bin = 0.3 and over

Look over these answered cases.
INSERT INTO measurements (compound, cat) VALUES
  ('O=C/C=C/c1ccc2c(c1)OCO2', 'high bin'),
  ('COc1ccc(CCNC(=O)[C@@]2(Sc3ccc(C)cc3)CC(=O)N(Cc3ccccc3Cl)[C@@H]2c2ccc(CO)cc2I)cc1', 'low bin'),
  ('COc1ccc(C(O)C2C=CC3C(=O)N(C)C(=O)C3N2Nc2ccccc2)cc1OCc1ccccc1 (centres undefined)', 'low bin'),
  ('CC1CC/C=C\[C@H]2OC34C=CCN(Cc5ccccc5)C(=O)[C@H]3N(CCCCCO)C(=O)[C@@H]4C2C(=O)O1 (some centres undefined)', 'high bin'),
  ('CC(C)NC(=O)[C@@H]1c2ccccc2C(=O)N(Cc2ccccc2)[C@H]1c1ccc(CO)cc1', 'mid bin');

// bin(item) where item = O=C1C[C@@](C(=O)NC2CC2)(c2ccc([N+](=O)[O-])cc2)[C@@H](c2ccc(CO)cc2)N1CC12CC3CC(CC(C3)C1)C2
high bin

// return the class label for CC(C)N1C(=O)C[C@@](C(=O)NCc2ccccc2)(c2ccc([N+](=O)[O-])cc2)[C@H]1c1ccc(CO)cc1
low bin

Into which category would you place C=C(COC)C(=O)CC[C@H](OC(C)=O)c1cccc(OCCO)c1 ?
high bin

---

# System: XIP peptide (Xip251-270)
# protocol details: small-molecule binders of XIP peptide, primary screen, biochemical, small-molecule microarray, fluorescence 635/667 nm, 0.5 µg/mL protein (AID 1183)
# reported conditions: small-molecule microarray binding, fluorescence 635 nm; higher = more signal
Can you tell me composite z-score for the items I'm about to list?
One number for each entry.

INSERT INTO measurements (mol, obs_value) VALUES
  ('Cc1ccc(S[C@]2(C(=O)NCc3ccccc3)CC(=O)N(Cc3ccccc3)[C@@H]2c2ccc(CO)cc2)cc1', 0.849);

State the recorded composite z-score for every item in the following list.
1. COc1ccc([Si](C)(C)[C@H]2[C@H](CCn3cc([C@H](O)c4ccccc4)nn3)O[C@@]3(C(=O)N(Cc4cccc(N5CCC5=O)c4)c4ccccc43)[C@@H]2C)cc1
2. [N-]=[N+]=NCc1ccccc1C[C@@]1(C(=O)N2CCOCC2)N=C(c2ccc(OCCCO)cc2)O[C@@H]1c1ccccc1CN=[N+]=[N-]
3. Cc1ccc(S[C@]2(C(=O)NCCN3CCOCC3)CC(=O)N(Cc3cc(C(F)(F)F)cc(C(F)(F)F)c3)[C@@H]2c2ccc(CO)cc2I)cc1
4. COCCOC(=O)N1C(=O)[C@@]2(c3cc(C#CCNC(N)=O)ccc31)[C@H](c1ccc(OCCO)cc1)N1[C@H](c3ccccc3)[C@H](c3ccccc3)OC(=O)[C@H]1[C@@H]2C(=O)N1CCc2cc(OC)c(OC)cc2C1
5. CN(C)C(=O)[C@@]1(CCC(=O)OC(C)(C)C)N=C(c2ccc(OCCCO)cc2)O[C@H]1c1ccccc1

1: 0.444; 2: 0.788; 3: 0.241; 4: 0.229; 5: 0.909

---

Assignment: determine reported composite z-score for the given molecules.
# protocol details: small-molecule microarray binders of probe aWnt5a, primary screen, biochemical, biotinylated probe, 635/667 nm fluorescence (AID 1113);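 further: score merges 667 nm fluorescence intensity with signal-to-noise per printed feature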
# reported conditions: higher = more signal
Answers are plain numbers.

Sample records with composite z-score:
INSERT INTO assay_data (molecule, quantity_name, obs_value) VALUES
  ('C=CC[C@@]1(C(=O)N2CCOCC2)N=C(c2ccc(OCCCO)cc2)O[C@@H]1c1ccccc1N=[N+]=[N-]', 'composite z-score', 0.171),
  ('C=C(COC)C(=O)CC[C@H](OC(C)=O)c1cccc(OCCO)c1', 'composite z-score', -0.124),
  ('CC(C)c1ccc(NN2C(C(O)c3cccc(O)c3)C=CC3C(=O)N(c4ccccc4)C(=O)C32)cc1 (configuration not stated)', 'composite z-score', -0.0583);

Please look at the items below and tell me composite z-score for each one, in order.
1. C=CCC(OC(C)=O)[C@@H]1[C@@H](N(Cc2cccc3ccccc23)C(=O)c2ccc(C)cc2)c2cc(OCCCO)ccc2N1C(=O)Cc1ccc(OC)cc1 (some centres not stated)
2. O=C1O[C@H](c2ccccc2)[C@H](c2ccccc2)N2[C@H]1[C@@H](C(=O)NC[C@H](O)c1ccccc1)[C@]1(C(=O)Nc3ccc(C#CCCO)cc31)[C@H]2c1ccc(O)cc1
3. COCCOC(=O)N1C(=O)[C@@]2(c3cc(C#CCC(C(=O)OC)C(=O)OC)ccc31)[C@H](C(=O)N1CCCCCCC1)[C@H]1C(=O)O[C@H](c3ccccc3)[C@H](c3ccccc3)N1[C@@H]2c1ccc(OCCO)cc1

-0.124
-0.202
1.21

---

Record form. Attribute: composite z-score. Fill in for each entry.
# System: Inhibin beta A chain (activin A)
# protocol details: INHBA (activin A) binders on microarrays, primary screen, biochemical, small-molecule microarray, 635 nm fluorescence scan (AID 1107);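 further: mouse activin A protein probed at 4.33 µg/mL on printed slides; score merges bound-protein fluorescence near 667 nm with spot signal-to-noise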
# reported conditions: small-molecule microarray binding, higher = more signal
Numbers only.

Consider the following illustrative entries.
INSERT INTO assay_data (molecule, measured_on, obs_value) VALUES
  ('CC(=O)NCCCC[C@@H]1NC(=O)[C@H]2C[C@@H](C(=O)NCCCCCC[N+](C)(C)C)[C@@H](c3cccc(OCCO)c3)N2C1=O', 'Inhibin beta A chain (activin A)', 0.695),
  ('CC(=O)NCCCC[C@@H]1NC(=O)[C@@H]2C[C@H](C(=O)NCCCCN(C)C)[C@H](c3ccc(O)cc3)N2C1=O', 'Inhibin beta A chain (activin A)', -0.727);

Kindly give each listed record's composite z-score.
1. C=CCC(OC(C)=O)[C@@H]1[C@@H](N(Cc2cc3ccccc3o2)C(=O)c2ccc(C)cc2)c2cc(OCCCO)ccc2N1C(=O)c1ccc2ccccc2c1 (stereo partly specified)
2. COCCOC(=O)N1C(=O)[C@@]2(c3cc(C#CC4=CCCCC4)ccc31)[C@H](C(=O)NC[C@H](O)c1ccccc1)[C@H]1C(=O)O[C@H](c3ccccc3)[C@H](c3ccccc3)N1[C@@H]2c1ccc(O)cc1
3. C=C(C(=O)CC[C@H](OC(C)=O)c1ccc(OCCO)cc1)C(C)C
4. O=C(O)[C@H]1C[C@H]2C(=O)NCC(=O)N2[C@H]1c1ccc(O)cc1
5. CN(C)C(=O)[C@]1(CCC(=O)OC(C)(C)C)N=C(c2ccc(OCCCO)cc2)O[C@@H]1c1ccccc1N=[N+]=[N-]
6. CCCCCN1CC=CC23O[C@@H]4/C=C\CCC(C)OC(=O)C4[C@H]2C(=O)N(CCCCCO)[C@@H]3C1=O (stereo partly specified)

1: 1.46; 2: 1.01; 3: -0.0025; 4: 0.23; 5: 0.252; 6: -0.362
